assay: Inhibition of NS5A in HCV genotype 3a S52 infected in human HuH7 transient chimeric replicon cells assessed as reduction in viral replication after 3 days by luciferase reporter gene assay
Listed next: entries and their corresponding EC50.
Numeric only. Scale: nM

{"Smiles Entry": "COC[C@H]1C[C@@H](c2nc3ccc4cc5c(cc4c3[nH]2)OCc2cc(-c3cnc([C@@H]4CCCN4C(=O)[C@@H](NC(=O)OC)C(C)C)[nH]3)ccc2-5)N(C(=O)[C@@H](NC(=O)OC)C(C)C)C1", "Quantity Unit": "nM", "EC50": 0.024}

We next turn to a different compound, shown below.
// query Return EC50 (reported value) for this compound: COC(=O)N[C@H](C(=O)N1CCC[C@H]1c1ncc(-c2cc3c4c(c2)OCc2cc(-c5cnc([C@@H]6CCCN6C(=O)[C@@H](NC(=O)OC)C(C)C)[nH]5)cc(c2-4)OC3)[nH]1)C(C)C
// result 0.055

====

Listed next: entries and their corresponding EC50.
test: Inhibition of NS5A in HCV genotype 1b Con1 infected in human HuH7 replicon cells assessed as reduction in viral replication after 3 days by luciferase reporter gene assay
Numeric only. Scale: nM

{"Smiles Entry": "COC(=O)N[C@H](C(=O)N1CCC[C@H]1c1ncc(-c2ccc3c(c2)COc2cc4c(ccc5nc([C@@H]6CCCN6C(=O)[C@@H](NC(=O)OC)C(C)C)[nH]c54)cc2-3)[nH]1)C(C)C", "Quantity Unit": "nM", "EC50": 0.017}
{"Smiles Entry": "COC(=O)N[C@H](C(=O)N1CCC[C@H]1c1ncc(-c2cc3c4c(c2)COc2cc(-c5cnc([C@@H]6CCCN6C(=O)[C@@H](NC(=O)OC)C(C)C)[nH]5)cc(c2-4)OC3)[nH]1)C(C)C", "Quantity Unit": "nM", "EC50": 0.021}
{"Smiles Entry": "COC(=O)N[C@H](C(=O)N1CCC[C@H]1c1ncc(-c2cc3c4c(c2)OCc2cc(-c5cnc([C@@H]6CCCN6C(=O)[C@@H](NC(=O)OC)C6CCOCC6)[nH]5)cc(c2-4)OC3)[nH]1)C1CCOCC1", "Quantity Unit": "nM", "EC50": 0.8}
{"Smiles Entry": "COC(=O)N[C@H](C(=O)N1CCC[C@H]1c1nc2ccc3cc4c(cc3c2[nH]1)OCc1cc(-c2cnc([C@@H]3CCCN3C(=O)[C@H](NC(=O)OC)c3ccccc3)[nH]2)ccc1-4)C(C)C", "Quantity Unit": "nM", "EC50": 0.033}

We next turn to a different molecule, shown below.
// query Return EC50 (reported value) for this molecule: COC(=O)N[C@H](C(=O)N1CCC[C@H]1c1ncc(-c2cc3c4c(c2)OCc2cc(-c5cnc([C@@H]6CCCN6C(=O)[C@@H](NC(=O)OC)C(C)C)[nH]5)cc(c2-4)OC3)[nH]1)C(C)C
// result 0.022

====

assay: Inhibition of NS5A in HCV genotype 1a H77 infected in human HuH7 replicon cells assessed as reduction in viral replication after 3 days by luciferase reporter gene assay
Listed next: entries and their corresponding pEC50.
The meaning of pEC50 here: minus log10 of the concentration in molar units.

Example results:
{"Molecule": "COC[C@H]1C[C@@H](c2ncc(-c3ccc4c(c3)COc3cc5c(ccc6nc([C@@H]7C[C@H]8C[C@@H]8N7C(=O)[C@@H](NC(=O)OC)C(C)C)[nH]c65)cc3-4)[nH]2)N(C(=O)[C@H](NC(=O)OC)c2ccccc2)C1", "Numeric Value": 11.00}
{"Molecule": "COC(=O)N[C@H](C(=O)N1CCC[C@H]1c1ncc(-c2cc3c4c(c2)COc2cc(-c5cnc([C@@H]6CCCN6C(=O)[C@@H](NC(=O)OC)C(C)C)[nH]5)cc(c2-4)CC3)[nH]1)C(C)C", "Numeric Value": 10.19}
{"Molecule": "COC(=O)NC(C(=O)N1CCC[C@H]1c1ncc(-c2cc3c4c(c2)OCc2cc(-c5cnc([C@@H]6CCCN6C(=O)[C@@H](NC(=O)OC)C(C)C)[nH]5)cc(c2-4)OC3)[nH]1)c1cccnc1 (stereo not given in full)", "Numeric Value": 9.12}
{"Molecule": "COC(=O)N[C@@H](C(=O)N1C[C@@H](C)C[C@H]1c1ncc(-c2cc3c4c(c2)OCc2cc(-c5cnc([C@@H]6C[C@H](C)CN6C(=O)[C@H](NC(=O)OC)c6ccccc6)[nH]5)cc(c2-4)OC3)[nH]1)c1ccccc1", "Numeric Value": 10.51}
{"Molecule": "COC(=O)N[C@H](C(=O)N1CCC[C@H]1c1ncc(-c2cc3c4c(c2)OCc2cc(-c5cnc([C@@H]6CCCN6C(=O)[C@@H](NC(=O)OC)C6CCCC6)[nH]5)cc(c2-4)OC3)[nH]1)C1CCCC1", "Numeric Value": 10.26}

// query Return pEC50 (reported value) for this molecule: COC(=O)N[C@H](C(=O)N1CCC[C@H]1c1ncc(-c2ccc3c(c2)COc2cc4c(ccc5nc([C@@H]6CCCN6C(=O)[C@@H](NC(=O)OC)C(C)C)[nH]c54)cc2-3)[nH]1)C(C)C
// result 10.80

// query Return pEC50 (reported value) for this molecule: COC[C@H]1C[C@@H](c2ncc(-c3cc4c5c(c3)OCc3cc(-c6cnc([C@@H]7CC[C@H](C)N7C(=O)[C@@H](NC(=O)OC)C(C)C)[nH]6)cc(c3-5)OC4)[nH]2)N(C(=O)[C@H](NC(=O)OC)c2ccccc2)C1
// result 10.80

// query Return pEC50 (reported value) for this molecule: COC(=O)N[C@H](C(=O)N1CCC[C@H]1c1ncc(-c2ccc3c(c2)COc2cc4c(ccc5nc([C@@H]6CC[C@H](C)N6C(=O)[C@@H](NC(=O)OC)C(C)C)[nH]c54)cc2-3)[nH]1)C(C)C
// result 10.96

// query Return pEC50 (reported value) for this molecule: COC(=O)N[C@H](C(=O)N1CCC[C@H]1c1ncc(-c2cc3c4c(c2)OCc2cc(-c5cnc([C@@H]6CCCN6C(=O)[C@H](NC(=O)OC)c6ccccc6)[nH]5)cc(c2-4)OC3)[nH]1)C(C)C
// result 10.30

// query Return pEC50 (reported value) for this molecule: COC(=O)N[C@H](C(=O)N1CCC[C@H]1c1ncc(-c2ccc3c(c2)COc2cc4c(ccc5nc([C@@H]6CCCN6C(=O)[C@H](NC(=O)OC)c6ccccc6)[nH]c54)cc2-3)[nH]1)C(C)C
// result 10.66
